Tested on: F1*sub RNA substrate (template-directed ligation)
Assay: fraction ligated after 30 min (ligated reads / total reads); higher = more ligase activity; sequences stand for … in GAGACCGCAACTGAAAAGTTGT…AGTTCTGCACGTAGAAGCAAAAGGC
Details: 42 °C
observationType: fraction ligated
Lab note: jot the number down without any unit.

# annotated cases, reported fraction ligated shown
querysequence="TATCACTGTGTAAGAACTTTGGATGGGTTGA [3d1348]" testvalue=0.882
querysequence="TATCACTTGTCGAAACACTTTGGAGGGTTGA [3d1921]" testvalue=0.0563
querysequence="TATCCTTGCGTAAGACACTTTGGATGGTTGA [3d997]" testvalue=0.0475
querysequence="ATCACTTGTCGTAAGAACTTGGATGGGTTGA [3d232]" testvalue=0.751
querysequence="TATCACTTGTCGTAAAACTTTGGATGGGTTGA [2d234]" testvalue=0.818
querysequence="TATCCTTGTCGTAAGACACTTGGTGGGTTGA [3d1099]" testvalue=0.265
querysequence="TACACTTGTCGAAGCACTTTGGATGGGTTGA [3d648]" testvalue=0.134

In the following, a different sequence is considered.
[ask] Indicate its recorded fraction ligated; the sequence in question is TACACTTTCGTAAGACACTTTGGAGGGTTGA [3d597]
[reply] 0.0439
